Recorded measurements of ELISA CD137 (RLU), one per entry
# target.or.test.system: T1, recombinant biotinylated CD137 protein (Fc-fusion protein, R&D Systems 838-4B) (human, UniProt Q07011 24-186, biotinylated, sites not stated)
# T1 construct: Bought Fc fusion; also called CD137-Fc
# protocol.description: ELISA, lysate on biotinylated CD137-Fc
Give just the number in RLU; leave the unit off.

Bench note: what ELISA CD137 (RLU) did ISOP193FR9P1C5 (designed binder, not shown: small tags and cut ends) LPAPKNLVVSRVTEDSARLSWTAPDAAFDSFHIYYLEQYSRGEAIVLTVPGSERSYDLTGLKPGTEYLVTIYGVKGCDWSDPLSAIFTT show?
8.66e+06

Bench note: what ELISA CD137 (RLU) did ISOP193BR9P1H3 (designed binder, not shown: small tags and cut ends) LPAPKNLVVSRVTEDSARLSWNRLDSEWVAFDSFLIQYQESEKVGEAIVLTVPGSERSYDLTGLKPGTEYTVSIYGVVFRPWLAYNSNPLSAIFTT show?
5.26e+06

Bench note: what ELISA CD137 (RLU) did ISOP193HR9P1E6 (designed binder, not shown: small tags and cut ends) LPAPKNLVVSRVTEDSARLSWTAPDAAFDSFEIYYAEFGYYGEAIVLTVPGSERSYDLTGLKPGTEYLVTIYGVKGCAASDPLSAIFTT show?
1.13e+07
